Values were extracted from ChEMBL document CHEMBL1201862.

system: MDA-MB-435; test: NCI tumour cell line growth inhibition, 48 h
Calls of active or inactive are those of the source. Cut-off read from the data, not from the text of the source: active = GI50 up to about 1.1 µM and inactive = higher.
Your answer must be one of the following: TRUE = active, FALSE = inactive

Past entries and their recorded results:
Request: Any idea what this test logged for COc1cc2c(cc1OC)C(=O)/C(=C/c1ccc(O)cc1)CC2 ?
Response: FALSE

Request: I'd appreciate the recorded outcome for C1CSCCSCCSCCSCCS1 from this test.
Response: FALSE

Request: Give the logged outcome of this assay for the following compound: CO[C@@H]1C[C@H]2[C@@H]3CC[C@H]([C@@H](C)COC(C)=O)[C@@]3(C)CC[C@@H]2[C@@]2(C)CC[C@H]3C[C@]312
Response: FALSE

Request: Dear all, I need the recorded test outcome for COc1cccc(N2C(=O)C3c4[nH]c5ccc(C)cc5c4C4CCC(C(C)(C)C)CC4C3C2=O)c1 (centres undefined) , thank you.
Response: FALSE

Request: How was OCCN(C1=NCCN1)/[N+](=C\c1ccccn1)[CH-]c1ccccn1 classified in this test?
Response: FALSE

Alright, here's another compound for you.
Request: Outcome? Cc1cc(N(CCOS(C)(=O)=O)CCOS(C)(=O)=O)ccc1/C=N/c1ccc(-c2nc(Cc3ccccc3)sc2C)cc1
Response: FALSE

###

tested on: SF-268; assay: NCI tumour cell line growth inhibition, 48 h
Calls of active or inactive are those of the source. Cut-off read from the data, not from the text of the source: active = GI50 up to about 1.1 µM and inactive = higher.
Could you please pick one outcome from this set? active, inactive

Request: Short answer needed: outcome of this test for O=C(O)Cc1cc(=O)[nH]c2c1C(=O)CCC2 ?
Response: inactive

Request: Could you please tell me the result logged for O=C(OC1C2OC(=O)c3cc(O)c(O)c(O)c3Oc3cc4c(c(O)c3O)-c3c(cc(O)c(O)c3O)C(=O)OCC3OC(O)C(OC(=O)c5cc(O)c(O)c(O)c5Oc5cc6c(c(O)c5O)-c5c(cc(O)c(O)c5O)C(=O)OC1C(COC6=O)OC2O)C(OC(=O)c1cc(O)c(O)c(O)c1)C3OC4=O)c1cc(O)c(O)c(O)c1 (stereo unspecified) in this assay?
Response: inactive

Request: Hi team, can someone confirm the assay call for N#CC1(C#N)C2CCCCC23OC(=N)C1(C#N)C(c1ccco1)O3 (stereo unspecified) ?
Response: inactive

Request: Just curious, what result did COc1cccc(NC(=O)C(C)(C)C)c1SSc1c(NC(=O)C(C)(C)C)cccc1OC get here?
Response: inactive

Request: What is the recorded call for this compound in the test? Cc1nc(Cl)nc(Cl)c1C
Response: inactive

Request: Hi team, can someone confirm the assay call for CC1OC(OC2C(OC(=O)[C@]34CCC(C)(C)CC3C3=CCC5[C@@]6(C)C[C@H](O)[C@H](OC7OC(CO)C(O)C(O)C7N)[C@@](C)(C(=O)O)C6CC[C@@]5(C)C3(C)CC4)OCC(O)C2O)C(O)C(O)C1OC1OCC(O)C(O)C1O (stereo partly specified) ?
Response: inactive

Request: Could you check what this test reported for CO/C(N)=C(C#N)/N=C/c1ccco1 ?
Response: inactive

Request: Could you check what this test reported for Cc1oc2c(c1C)S(=O)(=O)C(C#N)C(c1ccccc1)N2 (stereo unspecified) ?
Response: inactive

As a next step, examine the compound that follows.
Request: Please share the test call associated with O=S(=O)(O)c1ccc2c(/N=N/c3ccc(Cl)cc3)c(O)ccc2c1 .
Response: inactive
